Values from ChEMBL document CHEMBL1201862

assay: cells; format: functional, cell-based
Calls of active or inactive are those of the source. Rule as the data show it: actives have a measured EC50 and inactives only a lower limit.
METRIC_NAME: EC50

[[record]]
structure = "COc1ccc(-c2csc(NNC3=NCCCCC3)n2)cc1"
endpoint_value = "> 350 µM (not active)"

[[record]]
structure = "N#C[C-](C#N)c1nc2ccccc2nc1-[n+]1cccc(NC(=O)c2ccc(F)cc2)c1"
endpoint_value = "> 350 µM (not active)"

[[record]]
structure = "Cn1cccc1C(=O)NC(=O)COC(=O)c1cc(S(=O)(=O)N2CCCCC2)ccc1Cl"
endpoint_value = "> 350 µM (not active)"

[[record]]
structure = "Cc1cccc(/C=N/NC(=O)c2c(-c3ccccc3)noc2C)c1O"
endpoint_value = "23 µM (active)"

